- Tested system: α-synuclein (UniProt P37840 1-140); note: test concentration or dose not given here
- Method notes: cell-based or functional assay
Non-standard residues stand in square brackets, D forms with d.
Measured % decrease in ThT fluorescence, listed per entry.
# unit: % | format: bare number

Binder	Quantity name	Readout number
Ac-[dH][dH][dV][dI][dV][dW]-NH2 (SMILES CC[C@@H](C)[C@@H](NC(=O)[C@H](NC(=O)[C@@H](Cc1c[nH]cn1)NC(=O)[C@@H](Cc1c[nH]cn1)NC(C)=O)C(C)C)C(=O)N[C@@H](C(=O)N[C@H](Cc1c[nH]c2ccccc12)C(N)=O)C(C)C) [ZP-0172]	% decrease in ThT fluorescence	-1.7

Okay, now this binder:
Qu. Requested field: % decrease in ThT fluorescence. Item: Ac-[dH][dH][dV][dK][dV][dA]-NH2 (SMILES CC(=O)N[C@H](Cc1c[nH]cn1)C(=O)N[C@H](Cc1c[nH]cn1)C(=O)N[C@@H](C(=O)N[C@H](CCCCN)C(=O)N[C@@H](C(=O)N[C@H](C)C(N)=O)C(C)C)C(C)C) [ZP-0161]
Ans. -5.9

Data origin: patent US8290713
